- System under test: fusion protein PRC
- Sequence (chain, as listed by the source): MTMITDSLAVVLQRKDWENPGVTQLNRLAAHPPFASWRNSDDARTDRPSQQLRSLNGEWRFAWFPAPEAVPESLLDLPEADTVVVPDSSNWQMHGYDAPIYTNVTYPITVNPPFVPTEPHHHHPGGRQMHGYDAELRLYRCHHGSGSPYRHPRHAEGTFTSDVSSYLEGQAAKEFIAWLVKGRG
Measured attribute: relative cleavage efficiency

OmpT protease variant OmpT D97G (protein) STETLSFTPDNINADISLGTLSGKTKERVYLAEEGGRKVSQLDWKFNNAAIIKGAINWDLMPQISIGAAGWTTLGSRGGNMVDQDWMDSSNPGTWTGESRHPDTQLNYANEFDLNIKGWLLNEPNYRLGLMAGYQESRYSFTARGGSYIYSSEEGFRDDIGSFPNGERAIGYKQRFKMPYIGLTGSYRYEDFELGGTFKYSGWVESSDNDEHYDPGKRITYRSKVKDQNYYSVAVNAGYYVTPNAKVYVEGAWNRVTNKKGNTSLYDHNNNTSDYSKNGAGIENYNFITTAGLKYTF    less than 3.0%
OmpT protease variant OmpT D97Y (protein) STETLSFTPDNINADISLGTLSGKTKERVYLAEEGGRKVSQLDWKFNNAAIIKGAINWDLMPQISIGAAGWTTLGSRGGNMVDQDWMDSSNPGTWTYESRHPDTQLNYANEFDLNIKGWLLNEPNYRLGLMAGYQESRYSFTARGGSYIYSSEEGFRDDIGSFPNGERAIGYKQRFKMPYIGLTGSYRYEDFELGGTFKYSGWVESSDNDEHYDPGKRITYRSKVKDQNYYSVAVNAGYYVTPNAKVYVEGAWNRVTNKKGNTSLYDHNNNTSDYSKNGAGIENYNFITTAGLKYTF    less than 3.0%
OmpT protease variant OmpT D97A (protein) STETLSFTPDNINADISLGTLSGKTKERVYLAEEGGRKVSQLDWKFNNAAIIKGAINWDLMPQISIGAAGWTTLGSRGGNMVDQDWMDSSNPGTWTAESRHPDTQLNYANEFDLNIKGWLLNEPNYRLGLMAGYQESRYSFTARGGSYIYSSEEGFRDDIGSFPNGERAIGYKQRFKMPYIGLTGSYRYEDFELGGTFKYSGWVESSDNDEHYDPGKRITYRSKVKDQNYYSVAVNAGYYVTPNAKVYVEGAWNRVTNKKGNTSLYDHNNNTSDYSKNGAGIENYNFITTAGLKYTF    < 3%

Every entry's value here was drawn from patent US20070077617.
